# study system: rat α1β2γ2L type GABAA receptors expressed in Xenopus laevis oocytes (Rattus norvegicus (Rat), UniProt P62813+P63138, INS375LLRMFSFK)
# assay notes: Oocyte electrophysiology: potentiation of chloride currents mediated by 2 μM GABA, and direct gating
# Type: cell-based
# assay conditions: 10 μM compound; 2 μM GABA control; N≥4 oocytes; ± SEM
Is oocyte electrophysiology, ratio of currents in presence/absence of compound, 10 μM at least 20? Then Satisfied. If not, Not satisfied.

Example cases with answers are listed next.
{"compound smiles": "COC[C@]12CC[C@@H](O)C[C@@H]1CC[C@H]1[C@@H]3CC[C@H]([N+](=O)[O-])[C@@]3(C)CC[C@@H]12", "label": "Satisfied"}
{"compound smiles": "COC[C@]12CC[C@@H](O)C[C@@H]1CC[C@@H]1[C@@H]2CC[C@@]2(C)[C@H]1CC[C@@]21CO1", "label": "Not satisfied"}
{"compound smiles": "COC[C@]12CCC(=O)C=C1CC[C@@H]1[C@@H]2CC[C@]2(C)[C@@H](OC)CC[C@@H]12", "label": "Not satisfied"}
{"compound smiles": "COC[C@]12CC[C@H](O)CC1=CC[C@@H]1[C@@H]2CC[C@]2(C)[C@@H](OC)CC[C@@H]12", "label": "Not satisfied"}

Quick check, oocyte electrophysiology, ratio of currents in presence/absence of compound, 10 μM >= 20? `COC[C@]12CC[C@@H](O)C[C@@H]1CC[C@H]1[C@@H]3CC[C@H](OC)[C@@]3(C)CC[C@@H]12`
Satisfied

###

# study system: rat α1β2γ2L type GABAA receptors expressed in Xenopus laevis oocytes (Rattus norvegicus (Rat), UniProt P62813+P63138, INS375LLRMFSFK)
# assay notes: Oocyte electrophysiology: potentiation of chloride currents mediated by 2 μM GABA, and direct gating
# Type: cell-based
# assay conditions: 10 μM compound; 2 μM GABA control; N≥4 oocytes; ± SEM
reported metric: oocyte electrophysiology, ratio of currents in presence/absence of compound, 10 μM

{"compound": "COC[C@]12CC[C@@H](O)C[C@@H]1CC[C@@H]1[C@@H]2CC[C@]2(C)C(C#N)=CC[C@@H]12 [15, MQ-91]", "endpoint value": "25.6 ± 3.23"}
{"compound": "COC[C@]12CCC(=O)C[C@@H]1CC[C@H]1[C@@H]3CC[C@H](OC)[C@@]3(C)CC[C@@H]12 [7, MQ-88, (5α,17β)-17,19-Dimethoxyandrostan-3-one]", "endpoint value": "1.07 ± 0.02"}
{"compound": "COC[C@]12CC[C@H](O)C[C@@H]1CC[C@H]1[C@@H]3CC[C@H](OC)[C@@]3(C)CC[C@@H]12 [31, MQ-96]", "endpoint value": "1.10 ± 0.05"}
{"compound": "COC[C@]12CC[C@@H](O)C[C@@H]1CC[C@H]1[C@@H]3CC[C@H](C(C)=O)[C@@]3(C)CC[C@@H]12 [17, MQ-93]", "endpoint value": "33.8 ± 5.44"}

I would be grateful if you could share the reported oocyte electrophysiology, ratio of currents in presence/absence of compound, 10 μM for COC[C@]12CC[C@@H](O)C[C@@H]1CC[C@H]1[C@@H]3CC[C@H](C#N)[C@@]3(C)CC[C@@H]12 [16, MQ-92] .
25.7 ± 2.11

###

oocyte electrophysiology, ratio of currents in presence/absence of compound, 10 μM reference
# study system: rat α1β2γ2L type GABAA receptors expressed in Xenopus laevis oocytes (Rattus norvegicus (Rat), UniProt P62813+P63138, INS375LLRMFSFK)
# assay notes: Oocyte electrophysiology: potentiation of chloride currents mediated by 2 μM GABA, and direct gating
# Format: cell-based
# assay conditions: 10 μM compound; 2 μM GABA control; N≥4 oocytes; ± SEM

Illustrative cases are given below, each with its answer.
{"compound": "COC[C@]12CCC(O)CC1CC[C@@H]1[C@@H]2CC[C@]2(C)C(=O)CC[C@@H]12 (stereo in doubt)", "endpoint value": "0.84 ± 0.02"}
{"compound": "COC[C@]12CC[C@@H](O)C[C@@H]1CC[C@H]1[C@@H]3CC[C@H](C(=O)CO)[C@@]3(C)CC[C@@H]12", "endpoint value": "19.0 ± 2.31"}

--- query ---
I would be grateful if you could share the reported oocyte electrophysiology, ratio of currents in presence/absence of compound, 10 μM for `COC[C@]12CC[C@@H](O)CC1=CC[C@@H]1[C@@H]2CC[C@]2(C)[C@@H](OC)CC[C@@H]12` .
15.7 ± 0.90

###

# study system: rat α1β2γ2L type GABAA receptors expressed in Xenopus laevis oocytes (Rattus norvegicus (Rat), UniProt P62813+P63138, INS375LLRMFSFK)
# assay notes: Oocyte electrophysiology: potentiation of chloride currents mediated by 2 μM GABA, and direct gating
# Format: cell-based
# assay conditions: 0.1 μM compound; 2 μM GABA control; N≥4 oocytes; ± SEM
reported metric: oocyte electrophysiology, ratio of currents in presence/absence of compound, 0.1 μM

Illustrative cases are given below, each with its answer.
{"molecule": "COC[C@]12CC[C@@H](O)C[C@@H]1CC[C@H]1[C@@H]3CC[C@H](OC)[C@@]3(C)CC[C@@H]12 [8, MQ-89, (5α,17β)-17,19-Dimethoxyandrostan-3-ol]", "endpoint value": "1.65 ± 0.08"}
{"molecule": "COC[C@]12CCC(=O)C=C1CC[C@@H]1[C@@H]2CC[C@]2(C)[C@@H](OC)CC[C@@H]12 [24, MQ-99, (17β)-17,19-Dimethoxyandrost-4-en-3-one]", "endpoint value": "0.88 ± 0.08"}
{"molecule": "COC[C@]12CC[C@@H](O)CC1=CC[C@@H]1[C@@H]2CC[C@]2(C)[C@@H](OC)CC[C@@H]12 [25, MQ-101]", "endpoint value": "0.94 ± 0.07"}
{"molecule": "COC[C@]12CC[C@@H](O)C[C@@H]1CC[C@H]1[C@@H]3CC[C@H](C(C)=O)[C@@]3(C)CC[C@@H]12 [17, MQ-93]", "endpoint value": "2.15 ± 0.19"}
{"molecule": "COC[C@]12CC[C@H](O)C[C@@H]1CC[C@H]1[C@@H]3CC[C@H](OC)[C@@]3(C)CC[C@@H]12 [31, MQ-96]", "endpoint value": "0.91 ± 0.02"}
{"molecule": "COC[C@]12CC[C@@H](O)C[C@@H]1CC[C@H]1[C@@H]3CC[C@H](C(=O)CO)[C@@]3(C)CC[C@@H]12 [20, MQ-98]", "endpoint value": "0.98 ± 0.01"}

I would be grateful if you could share the reported oocyte electrophysiology, ratio of currents in presence/absence of compound, 0.1 μM for COC[C@]12CC[C@@H](O)C[C@@H]1CC[C@@H]1[C@@H]2CC[C@@]2(C)[C@H]1CC[C@@]21CO1 [12, MQ-90] .
1.24 ± 0.05

I would be grateful if you could share the reported oocyte electrophysiology, ratio of currents in presence/absence of compound, 0.1 μM for COC[C@]12CC[C@H](O)CC1=CC[C@@H]1[C@@H]2CC[C@]2(C)[C@@H](OC)CC[C@@H]12 [26, MQ-100] .
0.83 ± 0.03

I would be grateful if you could share the reported oocyte electrophysiology, ratio of currents in presence/absence of compound, 0.1 μM for COC[C@]12CCC(=O)C[C@@H]1CC[C@H]1[C@@H]3CC[C@H](OC)[C@@]3(C)CC[C@@H]12 [7, MQ-88, (5α,17β)-17,19-Dimethoxyandrostan-3-one] .
1.00 ± 0

I would be grateful if you could share the reported oocyte electrophysiology, ratio of currents in presence/absence of compound, 0.1 μM for COC[C@]12CC[C@@H](O)C[C@@H]1CC[C@@H]1[C@@H]2CC[C@]2(C)C(C#N)=CC[C@@H]12 [15, MQ-91] .
1.27 ± 0.13

I would be grateful if you could share the reported oocyte electrophysiology, ratio of currents in presence/absence of compound, 0.1 μM for COC[C@]12CCC(O)CC1CC[C@@H]1[C@@H]2CC[C@]2(C)C(=O)CC[C@@H]12 (stereo in doubt) [30, MQ-94] .
0.90 ± 0.02

I would be grateful if you could share the reported oocyte electrophysiology, ratio of currents in presence/absence of compound, 0.1 μM for COC[C@]12CC[C@@H](O)C[C@@H]1CC[C@H]1[C@@H]3CC[C@H](C#N)[C@@]3(C)CC[C@@H]12 [16, MQ-92] .
1.52 ± 0.02

I would be grateful if you could share the reported oocyte electrophysiology, ratio of currents in presence/absence of compound, 0.1 μM for COC[C@]12CC[C@@H](O)C[C@@H]1CC[C@H]1[C@@H]3CC[C@H]([N+](=O)[O-])[C@@]3(C)CC[C@@H]12 [29, MQ-97] .
2.07 ± 0.09
